# procedure-details: binders of probe aFGF2 on microarray, primary screen, stem cell growth factor project, biochemical, small-molecule microarray, fluorescence 635/667 (AID 1067);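 also: measures binding of biotinylated aFGF2 protein to printed compounds on slides; z-score merges feature fluorescence and signal-to-noise across triplicate slides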
# condition-parameters: higher = more signal
Documented composite z-score across a set of compounds
Give the figure only, with no unit attached.

Check out these entries, answers already filled in.
[[record]]
compound = "CCOC(=O)CCN1C(=O)[C@H]2[C@H]3[C@H](O)[C@H](O)CC(=NOCc4ccccc4)[C@@H]3CC[C@H]2C1=O"
reported_result = -0.201

[[record]]
compound = "CC(C)(C)OC(=O)CC[C@]1(C(N)=O)COC(c2ccc(OCCCO)cc2)=N1"
reported_result = 0.325

[[record]]
compound = "CCOC(=O)NN=C1C[C@@H](O)[C@@H](O)[C@@H]2[C@@H]3C(=O)N(C[C@@H]4CCCO4)C(=O)[C@@H]3CC[C@@H]12"
reported_result = -0.0786

[[record]]
compound = "CCCNC(=O)OC[C@H]1O[C@H](CCON=CC[C@@H]2C=C[C@H](OC(C)=O)[C@@H](COC(C)=O)O2)C=C[C@@H]1Oc1ccc(OC)cc1"
reported_result = -0.112


Input: Find the recorded composite z-score belonging to "CC=CC1=C(CO)[C@H](O)[C@H]2O[C@H]2[C@H]1O" and report it.
Output: -0.027

Input: Param item: "COCC1=C2[C@@H](CCc3ccccc3)OB(O)C[C@@H]2n2c(=O)n(-c3ccccc3)c(=O)n2C1"
Output: -0.0695

Input: Now give it for "C#C[C@@H](CC)O[Si](C#Cc1ccc(Oc2ccccc2)cc1)(C(C)C)C(C)C" too.
Output: -0.201

Input: Check "CCCC=C(CCC)[C@@H](NC(=O)c1ccc(-c2ccccc2)cc1)c1ccc(C(=O)OC)cc1" too.
Output: 0.0827

Input: Queued: "C=CC[C@@H]1C=C[C@H](ON=Cc2ccc(C(=O)N3[C@H](c4ccc(C)cc4)[C@@H](C)CC[C@H]3C(=O)OC)cc2)[C@@H](CO)O1"
Output: -0.0687

Input: Also check CC(C)(C)N1CC=CC23O[C@@H]4C=CCCOC(=O)C4[C@H]2C(=O)N(CCCCCO)[C@@H]3C1=O (stereo not given in full)
Output: -0.183

Input: Entry CC(CCN1CCc2nc(-c3ccccc3)c(-c3ccccc3)cc2C1)=NOC(C)CN1CCCCc2nc(C)c(C)cc21 (stereo not given) please
Output: -0.0398

Input: Next compound: "O=C1O[C@@H](c2ccccc2)[C@@H](c2ccccc2)N2[C@@H](c3ccccc3OCCO)[C@]3(C(=O)Nc4ccc(C#CCCO)cc43)[C@@H](C(=O)O)[C@H]12"
Output: -0.189

Input: Same thing, different compound: "NC(=O)NCC#Cc1ccc2c(c1)[C@]1(C(=O)N2)[C@H](c2ccc(O)cc2)N2[C@H](c3ccccc3)[C@H](c3ccccc3)OC(=O)[C@H]2[C@@H]1C(=O)N1CCCCCCC1"
Output: 0.242

Input: Same question for "CC(=O)OC[C@H]1O[C@H](CCON=C(C)CCC(=O)OC[C@H]2O[C@H](C#Cc3ccccc3)C=C[C@@H]2Oc2ccc(C)cc2)C=C[C@@H]1OC(C)=O" please.
Output: -0.12

Input: Request: "COc1ccc(O[C@H]2C=C[C@@H](c3ccccc3)O[C@@H]2COC(=O)CCC(C)=NO[C@H](C)c2cn([C@@H]3COC[C@H]3O)nn2)cc1"
Output: -0.125
